Ref: patent US11203577B2

system: Armyworms; assay: Test of insecticidal activity against armyworms (leaf immersion); conditions: 600 mg/kg, 3-4 days
Quick rule for you: Mortalities (%) Armyworms at 10% or higher means yes (1), lower means no (0).

// known answers, use as guide
# input Decide: is the reported value of Mortalities (%) Armyworms for CC1=NNC(=O)N(NS(=O)(=O)c2cccc(F)c2)C1 equal to or greater than 10%?
# output no (0)

# input Decide: is the reported value of Mortalities (%) Armyworms for CC1=NNC(=O)N(/N=C/c2cccnc2)C1 [Pymetrozine, reference compound] equal to or greater than 10%?
# output yes (1)

# input Decide: is the reported value of Mortalities (%) Armyworms for CC(=O)Nc1ccc(S(=O)(=O)N(N2CC(C)=NNC2=O)S(=O)(=O)c2ccc(NC(C)=O)cc2)cc1 equal to or greater than 10%?
# output yes (1)

New cases:
# input Decide: is the reported value of Mortalities (%) Armyworms for CC1=NNC(=O)N(NS(=O)(=O)c2ccc(I)cc2)C1 equal to or greater than 10%?
# output yes (1)

# input Decide: is the reported value of Mortalities (%) Armyworms for COc1ccc(S(=O)(=O)NN2CC(C)=NNC2=O)cc1 equal to or greater than 10%?
# output no (0)

# input Decide: is the reported value of Mortalities (%) Armyworms for CCCCS(=O)(=O)N(N1CC(C)=NNC1=O)S(=O)(=O)CCCC equal to or greater than 10%?
# output yes (1)

# input Decide: is the reported value of Mortalities (%) Armyworms for CCCCS(=O)(=O)NN1CC(C)=NNC1=O equal to or greater than 10%?
# output no (0)

---

system: Watermelon anthracnose; test: In vitro fungicidal activity, PDA colony diameter; format: cell-based; conditions: 50 mg/kg, inhibition of colony diameter; read-out: Fungicidal activity (%) Watermelon anthracnose
Quick rule for you: inhibition at 50 mg/kg at 10% or higher means criterion met, lower means criterion not met.

// known answers, use as guide
# input Decide: is the reported value of inhibition at 50 mg/kg for CCCS(=O)(=O)NN1CC(C)=NNC1=O equal to or greater than 10%?
# output criterion met

# input Decide: is the reported value of inhibition at 50 mg/kg for CC1=NNC(=O)N(NS(=O)(=O)c2cn(C)cn2)C1 equal to or greater than 10%?
# output criterion met

# input Decide: is the reported value of inhibition at 50 mg/kg for CC1=NNC(=O)N(NS(=O)(=O)c2ccccc2F)C1 equal to or greater than 10%?
# output criterion not met

# input Decide: is the reported value of inhibition at 50 mg/kg for CC(=O)Nc1ccc(S(=O)(=O)N(N2CC(C)=NNC2=O)S(=O)(=O)c2ccc(NC(C)=O)cc2)cc1 equal to or greater than 10%?
# output criterion met

Please turn your attention to the following entry.
# input Decide: is the reported value of inhibition at 50 mg/kg for CC1=NNC(=O)N(NS(=O)(=O)c2ccc(F)cc2)C1 equal to or greater than 10%?
# output criterion met

---

test system: mosquito larvae (Culer pipiens pallens); assay: Test of insecticidal activity against mosquito larvae (checked after 24 h); details: 24 h, read-out: Mortalities (%) against mosquito larvae
Please go through the items and note down their mortality at 10 mg/kg.
Give bare numbers, in %.

# input Give mortality at 10 mg/kg only, for COc1ccc(S(=O)(=O)NN2CC(C)=NNC2=O)cc1 [Ia-14] , using mosquito larvae (Culer pipiens pallens) data.
# output 100

# return mortality at 10 mg/kg for each item in the list
1. CC1=NNC(=O)N(NS(=O)(=O)c2c(C)cc(C)cc2C)C1 [Ia-13]
2. CC1=NNC(=O)N(NS(=O)(=O)c2cccs2)C1 [Ia-28]

# output
1. 100
2. 100

# return mortality at 10 mg/kg for each item in the list
1. CC1=NNC(=O)N(NS(C)(=O)=O)C1 [Ia-1]
2. CC1=NNC(=O)N(NS(=O)(=O)c2ccc(F)cc2)C1 [Ia-18]
3. CC1=NNC(=O)N(NS(=O)(=O)c2cccc3ccccc23)C1 [Ia-8]
4. CC1=NNC(=O)N(NS(=O)(=O)c2cccc(F)c2)C1 [Ia-17]
5. CC1=NNC(=O)N(N(S(C)(=O)=O)S(C)(=O)=O)C1 [Ib-1]
6. CCS(=O)(=O)N(N1CC(C)=NNC1=O)S(=O)(=O)CC [Ib-2]
7. CC1=NNC(=O)N(NS(=O)(=O)c2ccc3c(c2)CCO3)C1 [Ia-33]

# output
[55, 100, 15, 100, 35, 15, 85]

# return mortality at 10 mg/kg for each item in the list
1. CC(=O)Nc1ccc(S(=O)(=O)N(N2CC(C)=NNC2=O)S(=O)(=O)c2ccc(NC(C)=O)cc2)cc1 [Ib-8]
2. CC1=NNC(=O)N(NS(=O)(=O)c2ccccc2F)C1 [Ia-16]
3. CC1=NNC(=O)N(N(S(=O)(=O)c2ccccc2)S(=O)(=O)c2ccccc2)C1 [Ib-5]
4. CC1=NNC(=O)N(NS(=O)(=O)c2ccccc2)C1 [Ia-9]
5. CC1=NNC(=O)N(NS(=O)(=O)c2ccc(C(F)(F)F)cc2)C1 [Ia-26]
6. CC1=NNC(=O)N(NS(=O)(=O)c2ccc(I)cc2)C1 [Ia-23]
7. CC1=NNC(=O)N(NS(=O)(=O)c2ccc(Cl)cc2)C1 [Ia-21]
8. CC(=O)Nc1ccc(S(=O)(=O)NN2CC(C)=NNC2=O)cc1 [Ia-24]

# output
1: 30; 2: 100; 3: 60; 4: 100; 5: 100; 6: 100; 7: 100; 8: 100
